Target: RecQ-like DNA helicase BLM (Homo sapiens)
Assay: qHTS Validation Assay for Inhibitors of Bloom's syndrome helicase (BLM) (AID 2364)
Details: BLM helicase DNA unwinding, fluorescence, in vitro; series mostly up to 57.1 µM
Inconclusive results are not listed. Calls of active or inactive are those of the source. Calls follow the shape of the dose curve; as a rule, active = well fitted inhibition curve with a large enough effect; inconclusive = small, poorly fitted or top-dose-only effect; inactive = no such curve, though single readings can be large or run the other way.
Entry note: the call must match one of active, inactive

{"columns": ["COMPOUND STRING", "CLASS"],
 "data": [
  ["COc1[nH]c2ccc(F)cc2c1C(=O)OCC1CCN(CCNS(C)(=O)=O)CC1", "inactive"]
]}

Request: Field: outcome | Entry: `O=C(OCCN1CCCCC1)c1c[nH]c2ccccc12`
Response: inactive

Request: # fetch the recorded call for `CC(C)=CCC/C(C)=C/CC/C(C)=C/CSc1ccccc1C(=O)O` here
Response: active

Request: Write down the call the test reported for this compound. Item: `Nc1c(S(=O)(=O)O)cc(Nc2ccc(Nc3nc(Cl)nc(Nc4ccc(S(=O)(=O)O)cc4)n3)c(S(=O)(=O)O)c2)c2c1C(=O)c1ccccc1C2=O`
Response: active

Request: Would you mind telling me which call this test gave `O=S(=O)(NCCNC/C=C/c1ccc(Br)cc1)c1cccc2cnccc12` ?
Response: inactive

Request: Would you mind telling me which call this test gave `Cn1cnc2c(NC3CCCC3)ncnc21` ?
Response: inactive

Request: Could you kindly confirm the outcome this assay logged for `NCCNS(=O)(=O)c1cccc2cnccc12` ?
Response: inactive

Request: Fill in: this test's call for `Cc1cccc(/C=C/c2ccccc2)n1` is ___
Response: inactive
